Recorded values, source paper PMC2756588.

Please go through the items and note down their SPOT intensity.
# Measured On: T1, Boi1, P38041
# T1 sequence (P38041 1-86, looked up): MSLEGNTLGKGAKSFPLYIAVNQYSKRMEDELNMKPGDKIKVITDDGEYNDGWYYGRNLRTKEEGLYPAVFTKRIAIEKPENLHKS
# Experiment Notes: SPOT array
# Measurement Setup: median of control spots 1162
Numbers only.

Example cases with answers are listed next.
[[record]]
binder = "TPRLSLPRLPNKHHW"
recorded_measurement = 4

[[record]]
binder = "YRRKSIPFAPHQITA"
recorded_measurement = 0

[[record]]
binder = "LSKRLPLRFPEHTSS"
recorded_measurement = 0

[[record]]
binder = "GKKVRPLLVLLLSRA"
recorded_measurement = 14

[[record]]
binder = "TKPTPPPKPSHLKPK"
recorded_measurement = 0

[[record]]
binder = "WRPRIVPILPYITRL"
recorded_measurement = 0


Respectfully, I request SPOT intensity for each entry included below.
1. NILKRRPLKLEAPSK
2. KIRRSSLMIPNPQQF

[7, 2]
